Test: Drug repurposing screens with cells derived from glioblastoma tumor samples (AID 1345199); further: on the % scale 0 is the no-effect control and ±100 the full control effect; nearly all actives have a fitted effect of over 40% in size
Conditions: GBM patient neurospheres viability, ATP luminescence, 48 h; at 46.1 µM (top of the series); tumour line C
Procedure: CD133+ cells were isolated from GBM patient biopsies and cultured as neurospheres. Neurospheres from four patients were used to screen the NCATS pharmaceutical collection (NPC) library of approved drugs and bioactive compounds. […] The neurospheres were incubated with drugs for 48 hours in 1536-well format, then assayed with an ATP content cell viability assay. […]
Records with an inconclusive call do not appear.
experimentalReadout: activity, negative = cell killing (%)

{"compound": "CCN(CC)CCNC(=O)c1ccc(N)cc1", "experimentalReadout": "activity, negative = cell killing", "dataValue": 15.6}
{"compound": "C[C@@H](O)[C@H]1C(=O)N2C(C(=O)O)=C(S[C@@H]3CN[C@H](C(=O)N(C)C)C3)[C@H](C)[C@H]12", "experimentalReadout": "activity, negative = cell killing", "dataValue": -22.4}
{"compound": "COC(=O)[C@@H]1[C@H]2C[C@H]3c4[nH]c5ccccc5c4CCN3C[C@@H]2CC[C@@H]1O", "experimentalReadout": "activity, negative = cell killing", "dataValue": -7.31}
{"compound": "O=C(O)c1c(Cl)c(Cl)c(Cl)c(Cl)c1-c1c2cc(I)c(=O)c(I)c-2oc2c(I)c(O)c(I)cc12", "experimentalReadout": "activity, negative = cell killing", "dataValue": -28.5}
{"compound": "CCOC(=O)O[C@]1(C(=O)OCCl)CC[C@@H]2[C@H]3CCC4=CC(=O)C=C[C@]4(C)[C@@H]3[C@@H](O)C[C@@]21C", "experimentalReadout": "activity, negative = cell killing", "dataValue": 1.62}
{"compound": "COc1cc2ncnc(Nc3ccc(F)c(Cl)c3)c2cc1OCCCN1CCOCC1", "experimentalReadout": "activity, negative = cell killing", "dataValue": -12.4}
{"compound": "CCN1CCC[C@H]1CNC(=O)c1cc(S(N)(=O)=O)ccc1OC", "experimentalReadout": "activity, negative = cell killing", "dataValue": 1.29}
{"compound": "O=C(O)c1cc(-c2ccccc2)nc2ccccc12", "experimentalReadout": "activity, negative = cell killing", "dataValue": -23}
{"compound": "Cc1cccc(C)c1OCC(C)N (stereo unspecified)", "experimentalReadout": "activity, negative = cell killing", "dataValue": 3.32}
{"compound": "CN(C)CCC(c1ccccc1)c1ccccn1 (stereo unspecified)", "experimentalReadout": "activity, negative = cell killing", "dataValue": -14.6}
{"compound": "NC[C@@H]1O[C@@H](O[C@H]2[C@@H](O)[C@H](O[C@@H]3[C@@H](O)[C@@H](N)C[C@H](N)[C@H]3O[C@H]3O[C@H](CN)[C@@H](O)[C@@H](O)[C@H]3N)O[C@H]2CO)[C@H](N)[C@@H](O)[C@@H]1O", "experimentalReadout": "activity, negative = cell killing", "dataValue": 9.32}
{"compound": "CC(=O)c1ccc(S(=O)(=O)NC(=O)NC2CCCCC2)cc1", "experimentalReadout": "activity, negative = cell killing", "dataValue": -21}
{"compound": "O=C1NC(=O)C(c2ccccc2)(c2ccccc2)N1", "experimentalReadout": "activity, negative = cell killing", "dataValue": 10.5}
{"compound": "O=C(O)Cc1cccc2ccccc12", "experimentalReadout": "activity, negative = cell killing", "dataValue": -6.29}
{"compound": "CC(=O)O[C@]1(C(C)=O)CC[C@H]2[C@@H]3C=C(Cl)C4=CC(=O)[C@@H]5C[C@@H]5[C@]4(C)[C@H]3CC[C@@]21C", "experimentalReadout": "activity, negative = cell killing", "dataValue": 2.8}
{"compound": "N#C[C@H]1C[C@H]2C[C@@H]2N1C(=O)[C@@H](N)C12CC3CC(CC(O)(C3)C1)C2", "experimentalReadout": "activity, negative = cell killing", "dataValue": 4.9}

Hello, the source for this data is PubChem BioAssay (NCATS), in case you need it.
